B1: glmS ribozyme (parent)
chain: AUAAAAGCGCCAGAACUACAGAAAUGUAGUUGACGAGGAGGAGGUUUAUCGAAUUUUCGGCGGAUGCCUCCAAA

- Variants of: B1
- ASSAY NOTES: self-cleavage kobs at 10000 uM GlcN6P; higher = faster cleavage; RNA array
- CONDITION DETAILS: with glucosamine-6-phosphate
Fewer inactive variants are shown than the library holds.
Could you label it yes if measured self-cleavage kobs at 10000 uM GlcN6P is 0.0001 s⁻¹ or higher, and no otherwise?

MUTATION LIST	CATEGORY
G7A C11A C34U A36C U45A	no
C11U A53G G60A	no
A14U C67A	yes
G37C A53G	no
A14U U31C C34G A42G U47A G51A C71A	no
G7A U55A G66A C67U U69G	yes
U47A G63U	no
A14C A48U	no

Exam item: Reported self-cleavage kobs at 10000 uM GlcN6P reaches at least 0.0001 s⁻¹ for A12G A53U C67U ?
Marked response: yes

Exam item: Reported self-cleavage kobs at 10000 uM GlcN6P reaches at least 0.0001 s⁻¹ for C34A G37C A48C ?
Marked response: no

Exam item: Reported self-cleavage kobs at 10000 uM GlcN6P reaches at least 0.0001 s⁻¹ for U31G C68G ?
Marked response: no

Exam item: Reported self-cleavage kobs at 10000 uM GlcN6P reaches at least 0.0001 s⁻¹ for A39U U46G ?
Marked response: yes

Exam item: Reported self-cleavage kobs at 10000 uM GlcN6P reaches at least 0.0001 s⁻¹ for A36U G51A ?
Marked response: no

Exam item: Reported self-cleavage kobs at 10000 uM GlcN6P reaches at least 0.0001 s⁻¹ for U56C U57G G59U ?
Marked response: no

Exam item: Reported self-cleavage kobs at 10000 uM GlcN6P reaches at least 0.0001 s⁻¹ for G7U G38A A48G G60C ?
Marked response: no

Exam item: Reported self-cleavage kobs at 10000 uM GlcN6P reaches at least 0.0001 s⁻¹ for C11A A12C G32U C50G ?
Marked response: yes

Exam item: Reported self-cleavage kobs at 10000 uM GlcN6P reaches at least 0.0001 s⁻¹ for A36U G37C G41C U55G ?
Marked response: no

Exam item: Reported self-cleavage kobs at 10000 uM GlcN6P reaches at least 0.0001 s⁻¹ for C8U C16U U46A G63A ?
Marked response: no

Exam item: Reported self-cleavage kobs at 10000 uM GlcN6P reaches at least 0.0001 s⁻¹ for A33C A53G A64C ?
Marked response: no

Exam item: Reported self-cleavage kobs at 10000 uM GlcN6P reaches at least 0.0001 s⁻¹ for G41U C50A ?
Marked response: no

Exam item: Reported self-cleavage kobs at 10000 uM GlcN6P reaches at least 0.0001 s⁻¹ for A12U U69G ?
Marked response: yes

Exam item: Reported self-cleavage kobs at 10000 uM GlcN6P reaches at least 0.0001 s⁻¹ for C16U U54A C70G ?
Marked response: yes

Source of measurements: the supplement of paper PMC7125110
